Reference source for all entries: BindingDB's records for doi:10.1124/jpet.102.047183

subject of test: 5-hydroxytryptamine receptor 3A (Rattus norvegicus, UniProt P35563)
Sequence (P35563 whole entry): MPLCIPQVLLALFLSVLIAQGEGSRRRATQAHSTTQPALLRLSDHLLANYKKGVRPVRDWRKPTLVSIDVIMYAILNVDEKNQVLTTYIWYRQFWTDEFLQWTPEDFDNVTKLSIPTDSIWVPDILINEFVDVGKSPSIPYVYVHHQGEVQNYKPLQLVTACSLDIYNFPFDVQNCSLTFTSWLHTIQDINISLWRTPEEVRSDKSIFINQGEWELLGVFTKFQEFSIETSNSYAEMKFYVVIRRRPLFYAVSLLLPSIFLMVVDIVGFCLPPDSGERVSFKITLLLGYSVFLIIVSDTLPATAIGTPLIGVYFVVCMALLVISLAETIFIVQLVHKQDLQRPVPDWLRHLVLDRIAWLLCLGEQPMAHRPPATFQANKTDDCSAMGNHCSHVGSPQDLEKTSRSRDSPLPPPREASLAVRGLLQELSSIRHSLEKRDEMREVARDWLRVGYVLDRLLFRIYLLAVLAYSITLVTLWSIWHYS
measurement type: Ki (µM)
Please state the figure in µM; there is no need to write the unit.

Sample records with Ki:
O=C(c1ccc(OCCCc2cnc[nH]2)cc1)C1CC1 = 0.302
NC(=NCc1ccc(Cl)cc1)SCCCc1cnc[nH]1 [VUF 9153] = 0.00741

[in] Fill blank: measured Ki of the compound S=C(NC1CCCCC1)N1CCC(c2cnc[nH]2)CC1 is ____.
[out] 2.29

====

Endpoint: pKi. System: Histamine receptor H3 (Canis lupus familiaris, UniProt Q865E3). Items follow.
Sequence (Q865E3 whole entry): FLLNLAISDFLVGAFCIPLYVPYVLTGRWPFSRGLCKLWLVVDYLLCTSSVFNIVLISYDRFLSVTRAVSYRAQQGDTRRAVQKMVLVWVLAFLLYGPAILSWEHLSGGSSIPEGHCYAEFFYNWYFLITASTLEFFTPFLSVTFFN
# pKi is unitless: minus log10 of the molar concentration; print number only

Sample records with pKi:
S=C(NC1CCCCC1)N1CCC(c2cnc[nH]2)CC1 = 8.17
C[C@@H](NC(=O)c1ccco1)C(=O)N1CCN(CCCOc2ccc(C(=O)C3CC3)cc2)CC1 = 8.37

For the next question, use this molecule.
[in] Fill blank: measured pKi of the molecule NC(=NCc1ccc(Cl)cc1)SCCCc1cnc[nH]1 is ____.
[out] 10.10

====

Endpoint: Ki. System: Histamine H3 receptor (Cavia porcellus, UniProt Q9JI35). Items follow.
Sequence (Q9JI35 whole entry): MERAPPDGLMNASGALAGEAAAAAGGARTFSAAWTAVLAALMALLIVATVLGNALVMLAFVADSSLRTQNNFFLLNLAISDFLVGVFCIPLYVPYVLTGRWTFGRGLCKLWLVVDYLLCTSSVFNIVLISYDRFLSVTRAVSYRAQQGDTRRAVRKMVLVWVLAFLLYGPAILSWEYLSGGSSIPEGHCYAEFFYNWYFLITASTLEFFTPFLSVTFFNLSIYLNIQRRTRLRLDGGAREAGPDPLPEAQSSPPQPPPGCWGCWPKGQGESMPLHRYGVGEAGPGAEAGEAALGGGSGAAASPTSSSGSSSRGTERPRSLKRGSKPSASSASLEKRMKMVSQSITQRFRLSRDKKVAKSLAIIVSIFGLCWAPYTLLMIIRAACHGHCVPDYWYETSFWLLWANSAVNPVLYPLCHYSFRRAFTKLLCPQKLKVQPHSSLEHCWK

C[C@@H](NC(=O)c1ccco1)C(=O)N1CCN(CCCOc2ccc(C(=O)C3CC3)cc2)CC1 = 2.4 nM
O=C(c1ccc(OCCCc2cnc[nH]2)cc1)C1CC1 = 1.74 nM
NC(=NCc1ccc(Cl)cc1)SCCCc1cnc[nH]1 = 0.22 nM

For the next question, use this compound.
[in] Fill blank: measured Ki of the compound S=C(NC1CCCCC1)N1CCC(c2cnc[nH]2)CC1 is ____.
[out] 4.57 nM
